Hey, just so you know, these numbers are from ChEMBL document CHEMBL1135656.

target: Peptidyl-prolyl cis-trans isomerase A (Homo sapiens); assay: In vitro inhibition of human Cyclophilin A/protein interaction.
Sequence (P62937 whole entry): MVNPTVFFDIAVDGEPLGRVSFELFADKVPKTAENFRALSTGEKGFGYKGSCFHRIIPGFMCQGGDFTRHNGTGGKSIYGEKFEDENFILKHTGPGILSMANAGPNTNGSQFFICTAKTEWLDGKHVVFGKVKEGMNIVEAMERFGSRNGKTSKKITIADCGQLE
pIC50: −log10 of the molar value. Residues, ends and D or L forms follow the SMILES beside them. *: point of attachment. Desaminohistidyl = O=C(CCc1c[nH]cn1)*; X1 = c1ccc(C(CCN*)c2ccccc2)cc1; NHPhenethyl = c1ccc(CCN*)cc1; Isovaleryl = CC(C)CC(=O)*
Mark Criterion not met for pIC50 values under 3, and Criterion met for everything at or above.

Query :: Check this molecule for pIC50 at or above 3: CC[C@H](C)[C@H](NC(=O)[C@@H]1CCCN1C(=O)CNC(=O)[C@H](C)NC(=O)[C@H](Cc1cnc[nH]1)NC(=O)CC(C)C)C(=O)N[C@@H](C)C(N)=O (Isovaleryl-HAGPIA-NH2)
Result :: Criterion met

Query :: Check this molecule for pIC50 at or above 3: CC[C@H](C)[C@H](NC(=O)[C@@H]1CCCN1C(=O)CNC(=O)[C@H](C)NC(=O)CCc1cnc[nH]1)C(=O)N[C@@H](C)C(N)=O (Desaminohistidyl-AGPIA-NH2)
Result :: Criterion not met

Query :: Check this molecule for pIC50 at or above 3: CC[C@H](C)[C@H](NC(=O)[C@@H]1CCCN1C(=O)CNC(=O)[C@H](C)NC(=O)[C@H](Cc1cnc[nH]1)NC(=O)[C@@H](NC(C)=O)C(C)C)C(=O)NCCC(c1ccccc1)c1ccccc1 (Ac-VHAGPI-X1)
Result :: Criterion met

Query :: Check this molecule for pIC50 at or above 3: CC[C@H](C)[C@H](NC(=O)[C@@H]1CCCN1C(=O)CNC(=O)[C@H](C)NC(=O)[C@H](Cc1c[nH]cn1)NC(=O)[C@@H](NC(C)=O)C(C)C)C(=O)NCCc1ccccc1 (Ac-VHAGPI-NHPhenethyl)
Result :: Criterion met
